Consider the following compounds; for each one, report its selectivity ratio at 72 h.
test: Selectivity index, ratio of IC50 for mouse L929 cells to IC50 for human K-562 cells after 72 hrs by MTT assay; type: toxicity; details: L929 cells versus K-562 cells, read-out: Ratio IC50
Just the number.

Q) Recorded selectivity ratio at 72 h for Cc1ccc(/N=C2\C=C(OCc3cn(S(=O)(=O)c4ccc(C)cc4)nn3)C(=O)c3ccccc32)cc1 , please?
A) 2.9

Q) Quick one: Cc1ccc(S(=O)(=O)n2cc(COC3=C/C(=N\c4ccc(Br)cc4)c4ccccc4C3=O)nn2)cc1
A) 3.3

Q) Quick one: C#CCOC1=C/C(=N\c2ccc(Cl)cc2)c2ccccc2C1=O
A) 2.4

Q) Quick one: C#CCOC1=C/C(=N\c2ccc(F)cc2)c2ccccc2C1=O
A) 2.4

Q) Quick one: Cc1ccc(SC2=CC(=O)C(=O)c3ccccc32)cc1
A) 1.8

Q) Quick one: C#CCOC1=C/C(=N\c2ccc(C)cc2)c2ccccc2C1=O
A) 1.5

Q) Quick one: C#CCOC1=C/C(=N\c2ccc(Br)cc2)c2ccccc2C1=O
A) 1.2

Q) Quick one: COc1ccc(/N=C2\C=C(OCc3cn(S(=O)(=O)c4ccc(C)cc4)nn3)C(=O)c3ccccc32)cc1
A) 1

Q) Quick one: C#CCOC1=C/C(=N\c2ccc(OC)cc2)c2ccccc2C1=O
A) 1

Q) Quick one: COc1ccc(SC2=CC(=O)C(=O)c3ccccc32)cc1
A) 2.5

Q) Quick one: Cc1ccc(S(=O)(=O)n2cc(COC3=C/C(=N\c4ccccc4)c4ccccc4C3=O)nn2)cc1
A) 1.7

Q) Quick one: Cc1ccc(S(=O)(=O)n2cc(COC3=C/C(=N\c4ccc(F)cc4)c4ccccc4C3=O)nn2)cc1
A) 2.6

Q) Quick one: Cc1ccc(S(=O)(=O)n2cc(COC3=C/C(=N\c4ccc(Cl)cc4)c4ccccc4C3=O)nn2)cc1
A) 2

Q) Quick one: C#CCOC1=C/C(=N\c2ccc(C(C)=O)cc2)c2ccccc2C1=O
A) 1

Q) Quick one: O=C1C=C(Sc2ccccc2)c2ccccc2C1=O
A) 1.8

Q) Quick one: C#CCOC1=C/C(=N\c2ccccc2)c2ccccc2C1=O
A) 1

Q) Quick one: Cc1ccc(S(=O)(=O)n2cc(COC3=C/C(=N\c4ccc(I)cc4)c4ccccc4C3=O)nn2)cc1
A) 1.5

Q) Quick one: Cc1cccc(SC2=CC(=O)C(=O)c3ccccc32)c1
A) 2.2

Q) Quick one: CC(=O)c1ccc(/N=C2\C=C(OCc3cn(S(=O)(=O)c4ccc(C)cc4)nn3)C(=O)c3ccccc32)cc1
A) 1.9

Q) Quick one: C#CCOC1=C/C(=N\c2ccc(I)cc2)c2ccccc2C1=O
A) 1.4

---

tested on: Trypanosoma cruzi; assay: Antitrypanosomal activity against Trypanosoma cruzi Y strain bloodstream trypomastigotes assessed as lysis of parasite in presence of 5 % mouse blood incubated for 24 hrs by Neubauer chamber method; type: functional, organism-based
Consider the following compounds; for each one, report its IC50.

Q) Recorded IC50 for COc1ccc(SC2=CC(=O)C(=O)c3ccccc32)cc1 , please?
A) 112 µM

Q) Quick one: Cc1ccc(/N=C2\C=C(OCc3cn(S(=O)(=O)c4ccc(C)cc4)nn3)C(=O)c3ccccc32)cc1
A) > 500 µM

Q) Quick one: Cc1ccc(S(=O)(=O)n2cc(COC3=C/C(=N\c4ccc(Cl)cc4)c4ccccc4C3=O)nn2)cc1
A) > 500 µM

---

Consider the following compounds; for each one, report its pIC50.
system: NCI-H460; assay: Cytotoxicity against human NCI-H460 cells assessed as reduction in cell viability after 72 hrs by MTT assay; type: functional, cell-based; conditions: NCI-H460, 72 h
On this scale, pIC50 is minus log10 of a concentration expressed in M (mol/L).

Q) Recorded pIC50 for C#CCOC1=C/C(=N\c2ccc(F)cc2)c2ccccc2C1=O , please?
A) 4.77

Q) Quick one: C#CCOC1=C/C(=N\c2ccc(C)cc2)c2ccccc2C1=O
A) 4.77

Q) Quick one: Cc1ccc(S(=O)(=O)n2cc(COC3=C/C(=N\c4ccc(Cl)cc4)c4ccccc4C3=O)nn2)cc1
A) 4.92

Q) Quick one: CC(=O)c1ccc(/N=C2\C=C(OCc3cn(S(=O)(=O)c4ccc(C)cc4)nn3)C(=O)c3ccccc32)cc1
A) 4.80

Q) Quick one: Cc1ccc(S(=O)(=O)n2cc(COC3=C/C(=N\c4ccccc4)c4ccccc4C3=O)nn2)cc1
A) 5.14

---

test: Selectivity index, ratio of IC50 for mouse L929 cells to IC50 for human HL-60cells after 72 hrs by MTT assay; assay type: toxicity; settings: L929 cells versus HL-60 cells, read-out: Ratio IC50
Please mark MET if the recorded selectivity ratio at 72 h is equal to or greater than 3, and NOT MET if it falls below.

Q) Does selectivity ratio at 72 h meet or surpass 3 for COc1ccc(SC2=CC(=O)C(=O)c3ccccc32)cc1 ?
A) MET

Q) Quick one: CC(=O)c1ccc(/N=C2\C=C(OCc3cn(S(=O)(=O)c4ccc(C)cc4)nn3)C(=O)c3ccccc32)cc1
A) NOT MET

Q) Quick one: Cc1ccc(S(=O)(=O)n2cc(COC3=C/C(=N\c4ccc(F)cc4)c4ccccc4C3=O)nn2)cc1
A) NOT MET

Q) Quick one: O=C1C=C(Sc2ccccc2)c2ccccc2C1=O
A) MET

Q) Quick one: C#CCOC1=C/C(=N\c2ccc(F)cc2)c2ccccc2C1=O
A) MET

Q) Quick one: C#CCOC1=C/C(=N\c2ccc(C(C)=O)cc2)c2ccccc2C1=O
A) NOT MET

Q) Quick one: C#CCOC1=C/C(=N\c2ccc(I)cc2)c2ccccc2C1=O
A) NOT MET

Q) Quick one: C#CCOC1=C/C(=N\c2ccccc2)c2ccccc2C1=O
A) NOT MET

Q) Quick one: C#CCOC1=C/C(=N\c2ccc(OC)cc2)c2ccccc2C1=O
A) MET

Q) Quick one: Cc1ccc(S(=O)(=O)n2cc(COC3=C/C(=N\c4ccc(I)cc4)c4ccccc4C3=O)nn2)cc1
A) NOT MET

Q) Quick one: Cc1cccc(SC2=CC(=O)C(=O)c3ccccc32)c1
A) MET

Q) Quick one: COc1ccc(/N=C2\C=C(OCc3cn(S(=O)(=O)c4ccc(C)cc4)nn3)C(=O)c3ccccc32)cc1
A) MET

Q) Quick one: Cc1ccc(S(=O)(=O)n2cc(COC3=C/C(=N\c4ccc(Br)cc4)c4ccccc4C3=O)nn2)cc1
A) MET

Q) Quick one: C#CCOC1=C/C(=N\c2ccc(C)cc2)c2ccccc2C1=O
A) NOT MET

Q) Quick one: Cc1ccc(S(=O)(=O)n2cc(COC3=C/C(=N\c4ccc(Cl)cc4)c4ccccc4C3=O)nn2)cc1
A) NOT MET

Q) Quick one: C#CCOC1=C/C(=N\c2ccc(Cl)cc2)c2ccccc2C1=O
A) NOT MET

Q) Quick one: Cc1ccc(S(=O)(=O)n2cc(COC3=C/C(=N\c4ccccc4)c4ccccc4C3=O)nn2)cc1
A) MET

Q) Quick one: C#CCOC1=C/C(=N\c2ccc(Br)cc2)c2ccccc2C1=O
A) NOT MET

Q) Quick one: Cc1ccc(/N=C2\C=C(OCc3cn(S(=O)(=O)c4ccc(C)cc4)nn3)C(=O)c3ccccc32)cc1
A) MET

Q) Quick one: Cc1ccc(SC2=CC(=O)C(=O)c3ccccc32)cc1
A) MET

---

Consider the following compounds; for each one, report its IC50.
system: PC-3; experiment: Cytotoxicity against human PC-3 cells assessed as reduction in cell viability after 72 hrs by MTT assay; assay type: functional, cell-based; conditions: PC-3, 72 h

Q) Recorded IC50 for Cc1ccc(SC2=CC(=O)C(=O)c3ccccc32)cc1 , please?
A) > 20 µM

Q) Quick one: C#CCOC1=C/C(=N\c2ccc(Br)cc2)c2ccccc2C1=O
A) 15.9 µM

Q) Quick one: Cc1ccc(S(=O)(=O)n2cc(COC3=C/C(=N\c4ccc(F)cc4)c4ccccc4C3=O)nn2)cc1
A) 2.03 µM

Q) Quick one: Cc1ccc(/N=C2\C=C(OCc3cn(S(=O)(=O)c4ccc(C)cc4)nn3)C(=O)c3ccccc32)cc1
A) 2.65 µM

Q) Quick one: C#CCOC1=C/C(=N\c2ccccc2)c2ccccc2C1=O
A) 14.1 µM

---

tested on: PC-3; test: Cytotoxicity against human PC-3 cells assessed as reduction in cell viability after 72 hrs by MTT assay; format: functional, cell-based; settings: PC-3, 72 h
Consider the following compounds; for each one, report its IC50.
Number in µM, nothing else.

Q) Item: Cc1ccc(S(=O)(=O)n2cc(COC3=C/C(=N\c4ccc(Br)cc4)c4ccccc4C3=O)nn2)cc1 Test system: PC-3 Read-out: IC50 Value: ?
A) 3.41

Q) Quick one: C#CCOC1=C/C(=N\c2ccc(Cl)cc2)c2ccccc2C1=O
A) 14.6

Q) Quick one: CC(=O)c1ccc(/N=C2\C=C(OCc3cn(S(=O)(=O)c4ccc(C)cc4)nn3)C(=O)c3ccccc32)cc1
A) 3.91

Q) Quick one: C#CCOC1=C/C(=N\c2ccc(C(C)=O)cc2)c2ccccc2C1=O
A) 12.5

Q) Quick one: C#CCOC1=C/C(=N\c2ccc(C)cc2)c2ccccc2C1=O
A) 18.4

Q) Quick one: C#CCOC1=C/C(=N\c2ccc(OC)cc2)c2ccccc2C1=O
A) 8.82
